# Tested system: Macrophage colony-stimulating factor 1 receptor (Homo sapiens)
# Sequence (P07333 whole entry): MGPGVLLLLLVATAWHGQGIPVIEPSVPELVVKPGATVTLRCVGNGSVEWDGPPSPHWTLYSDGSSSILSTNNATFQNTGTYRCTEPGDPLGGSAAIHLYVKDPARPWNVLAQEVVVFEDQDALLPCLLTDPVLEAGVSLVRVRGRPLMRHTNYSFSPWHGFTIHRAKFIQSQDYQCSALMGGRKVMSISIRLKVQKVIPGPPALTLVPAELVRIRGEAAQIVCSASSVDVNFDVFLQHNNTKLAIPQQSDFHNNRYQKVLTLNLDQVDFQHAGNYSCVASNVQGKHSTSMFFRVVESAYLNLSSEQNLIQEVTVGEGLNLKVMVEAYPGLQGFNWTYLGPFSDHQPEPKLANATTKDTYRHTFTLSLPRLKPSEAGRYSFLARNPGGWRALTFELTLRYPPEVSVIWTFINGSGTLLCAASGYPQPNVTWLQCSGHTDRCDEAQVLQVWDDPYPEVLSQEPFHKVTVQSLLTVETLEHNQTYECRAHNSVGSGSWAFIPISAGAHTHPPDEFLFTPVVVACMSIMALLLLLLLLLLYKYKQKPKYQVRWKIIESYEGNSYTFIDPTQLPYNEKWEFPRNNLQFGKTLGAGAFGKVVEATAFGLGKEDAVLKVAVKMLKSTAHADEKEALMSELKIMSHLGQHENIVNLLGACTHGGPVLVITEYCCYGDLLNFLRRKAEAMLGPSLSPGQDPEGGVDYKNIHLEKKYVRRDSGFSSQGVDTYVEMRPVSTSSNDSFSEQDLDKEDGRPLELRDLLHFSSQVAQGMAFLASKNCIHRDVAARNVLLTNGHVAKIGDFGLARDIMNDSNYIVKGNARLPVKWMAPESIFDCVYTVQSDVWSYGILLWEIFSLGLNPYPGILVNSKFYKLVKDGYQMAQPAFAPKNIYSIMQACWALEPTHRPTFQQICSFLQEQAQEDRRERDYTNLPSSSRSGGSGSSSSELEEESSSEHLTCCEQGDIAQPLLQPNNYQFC
pIC50: −log10 of the molar value.
Readout kind: pIC50

structure_string=CCOC(=O)CCc1c(/C=C2\C(=O)Nc3ccc(NS(=O)(=O)c4ccccc4)cc32)[nH]c2c1C(=O)CCC2 readout_kind=pIC50 experimental_result="< 6.00"

----------
# log10 of IC50 per entry
# Tested system: Aurora kinase A (Homo sapiens)
# Sequence (O14965 whole entry): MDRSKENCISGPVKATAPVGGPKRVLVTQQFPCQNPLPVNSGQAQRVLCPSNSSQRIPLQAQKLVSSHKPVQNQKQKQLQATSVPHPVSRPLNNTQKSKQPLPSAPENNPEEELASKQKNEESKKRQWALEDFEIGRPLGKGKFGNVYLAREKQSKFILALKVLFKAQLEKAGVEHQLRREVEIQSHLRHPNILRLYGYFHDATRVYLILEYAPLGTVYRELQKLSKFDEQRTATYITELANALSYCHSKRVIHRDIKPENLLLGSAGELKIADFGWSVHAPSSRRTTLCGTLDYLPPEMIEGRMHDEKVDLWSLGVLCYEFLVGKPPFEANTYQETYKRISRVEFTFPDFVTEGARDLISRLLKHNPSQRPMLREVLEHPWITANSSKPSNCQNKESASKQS
# Run description: Inhibition of recombinant aurora A
Readout kind: log10 of IC50 (log10 of the value in nM)

structure_string=CCN(CC)CCCc1c(/C=C2\C(=O)Nc3ccc(NS(=O)(=O)c4ccccc4)cc32)[nH]c2c1C(=O)CCC2 experimental_result=3.39
structure_string=CC1(C)CC(=O)c2c([nH]c(/C=C3\C(=O)Nc4ccc(F)cc43)c2CCC(=O)O)C1 experimental_result=2.66
structure_string=CN(C)CCCc1c(/C=C2\C(=O)Nc3ccc(S(=O)(=O)N4CCc5ccccc54)cc32)[nH]c2c1C(=O)CCC2 experimental_result=3.36
structure_string=O=C(O)CCc1c(/C=C2\C(=O)Nc3ccc(NC(=O)c4ccccc4)cc32)[nH]c2c1C(=O)CCC2 experimental_result=2.86
structure_string=O=C(O)CCc1c(/C=C2\C(=O)Nc3ccc(S(=O)(=O)N4CCCC4)cc32)[nH]c2c1C(=O)CCC2 experimental_result=0.85
structure_string=O=C1Nc2ccc(NS(=O)(=O)c3ccccc3)cc2/C1=C/c1[nH]c2c(c1CCC(=O)N1CCCC1)C(=O)CCC2 experimental_result=2.34
structure_string=CN(C)CCCc1c(/C=C2\C(=O)Nc3ccc(NS(=O)(=O)c4ccccc4)cc32)[nH]c2c1C(=O)CCC2 experimental_result=3.34
structure_string=CCS(=O)(=O)c1ccc2c(c1)/C(=C/c1[nH]c3c(c1CCC(=O)O)C(=O)CCC3)C(=O)N2 experimental_result=1.76
structure_string=O=C1Nc2ccc(NS(=O)(=O)c3ccccc3)cc2/C1=C/c1[nH]c2c(c1CCC(=O)N1CCOCC1)C(=O)CCC2 experimental_result=2.45
structure_string=CCS(=O)(=O)Nc1ccc2c(c1)/C(=C/c1[nH]c3c(c1CCC(=O)O)C(=O)CCC3)C(=O)N2 experimental_result=1.53
structure_string=CC(=O)c1c(C)[nH]c(/C=C2\C(=O)Nc3ccc(F)cc32)c1CCC(=O)O experimental_result=2.56
structure_string=O=C(O)CCc1c(/C=C2\C(=O)Nc3ccc(NS(=O)(=O)c4ccccc4)cc32)[nH]c2c1C(=O)CCC2 experimental_result=1.08
structure_string=CCN(CC)CCCc1c(/C=C2\C(=O)Nc3ccc(S(=O)(=O)N4CCc5ccccc54)cc32)[nH]c2c1C(=O)CCC2 experimental_result=3.37
structure_string=CNC(=O)CCc1c(/C=C2\C(=O)Nc3ccc(NS(=O)(=O)c4ccccc4)cc32)[nH]c2c1C(=O)CCC2 experimental_result=2.07
structure_string=O=C(O)CCc1c(/C=C2\C(=O)Nc3ccc(S(=O)(=O)N4CCc5ccccc54)cc32)[nH]c2c1C(=O)CCC2 experimental_result=0.90
structure_string=O=C1Nc2ccc(NS(=O)(=O)c3ccccc3)cc2/C1=C/c1[nH]c2c(c1CCCN1CCCC1)C(=O)CCC2 experimental_result=3.34

# credit: ChEMBL document CHEMBL1212904
